assay: in vivo; details: male, Swiss Albino, mouse, po, 10 mg/kg, Plasma concentration
Where a SMILES comes first, the peptide text is derived from it. [ ]: non-standard residue; d: D form. dNMeI = CC[C@@H](C)[C@@H](NC)C(=O)O; NMeL = CN[C@@H](CC(C)C)C(=O)O

molecule: CC[C@@H](C)[C@H]1NC(=O)[C@H]([C@@H](C)CC)NC(=O)[C@H](CC(C)C)N(C)C(=O)[C@H]2CCCN2C(=O)[C@@H]([C@H](C)CC)NC(=O)[C@@H]([C@H](C)CC)N(C)C(=O)[C@H](CC(C)C)NC(=O)[C@H]2CCCN2C(=O)[C@@H]2CCCN2C(=O)[C@H](C(C)C)NC(=O)[C@H]2CCCN2C1=O [Design D11.3, VPpL*iip*LIip] (cyclo(I[dI][dP]VP[dP]L[dNMeI][dI][dP][NMeL]))
level at 5 h: 2540 ng/mL
